This collection of values is drawn from PubChem BioAssay (NCI).

tested on: HOP-62 NSCLC; test: NCI tumour cell line growth inhibition, 48 h
Where a SMILES comes first, the peptide text is derived from it. [ ]: non-standard residue; d: D form. The star is where a group is joined. ξ: configuration not given here. ξNMe2Val = CC(C)C(C(=O)*)N(C)C; NMeV = CN[CH](C(=O)O)C(C)C; NHBn = c1ccc(CN*)cc1

{"COMPOUND": "COc1ccc(CNc2cnc3cc(N)ccc3n2)cc1", "TGI": "> 100 µM"}
{"COMPOUND": "O=C(CN(/C=C/C(=O)C(F)(F)F)c1ccc(Cl)cc1)c1ccc(Cl)cc1", "TGI": "> 100 µM"}
{"COMPOUND": "C=CCN(c1cc(OC)c(NC(C)=O)cc1[N+](=O)[O-])S(C)(=O)=O", "TGI": "> 100 µM"}
{"COMPOUND": "OC12c3ccccc3C1CCCCC2N1CCCC1 (stereo unspecified)", "TGI": "> 100 µM"}
{"COMPOUND": "CC(=O)c1nc2ccccc2n1C(C)C(=O)c1ccccc1 (stereo unspecified)", "TGI": "> 100 µM"}
{"COMPOUND": "CNC(=O)C(C)NC(=O)C(Cc1ccccc1)NC(=O)c1ccccc1 (stereo unspecified)", "TGI": "> 100 µM"}
{"COMPOUND": "O=C(C(=O)c1cc2ccccc2[nH]1)c1cc2ccccc2[nH]1", "TGI": "> 347 µM"}
{"COMPOUND": "CC(C)N(C(=O)C12C3C4C5(C#N)C3C1(C#N)C5C42C#N)C(C)C (stereo unspecified)", "TGI": "> 100 µM"}
{"COMPOUND": "CC(=O)Oc1ccccc1", "TGI": "> 100 µM"}
{"COMPOUND": "CSC1=N/C(=C\\c2ccc(Cl)cc2)C(=O)N1CN1CCCCC1", "TGI": "> 100 µM"}
{"COMPOUND": "COC(COC(N)=O)C1=C(N2CC2)C(=O)C(C)=C(N2CC2)C1=O (stereo unspecified)", "TGI": "0.227 µM"}
{"COMPOUND": "CNC(=O)c1c(C)oc2cc(Oc3ncnc4cc(OC)c(OC)cc34)ccc12", "TGI": "> 100 µM"}
{"COMPOUND": "CC(C)C[C@H](NC(=O)CNC(=O)c1cc(Cl)ccc1Cl)B(O)O", "TGI": "0.429 µM"}
{"COMPOUND": "C=C(Cl)C(Cl)(CBr)CCC(Br)C(C)(C)Br (stereo unspecified)", "TGI": "1.83 µM"}
{"COMPOUND": "OC1(C(Sc2cc(C(F)(F)F)cc(C(F)(F)F)c2)Sc2cc(C(F)(F)F)cc(C(F)(F)F)c2)C=CCCC1 (stereo unspecified)", "TGI": "11.4 µM"}
{"COMPOUND": "Cc1c2ccccc2c(C2C3C(=O)N(c4ccc(Br)cc4)C(=O)C3ON2C(C(N)=O)c2ccccc2)c2ccccc12 (stereo unspecified)", "TGI": "36.1 µM"}
{"COMPOUND": "Cc1ccc(O)c(C(c2cccc(C(c3cc(C)ccc3O)c3cc(C)ccc3O)c2)c2cc(C)ccc2O)c1", "TGI": "4.04 µM"}
{"COMPOUND": "O=C(C=P(c1ccccc1)(c1ccccc1)c1ccccc1)c1ccc(-c2cccs2)cc1", "TGI": "20.7 µM"}
{"COMPOUND": "COc1cccc2c1c1ccc3c(c1n2C)C(=O)C=CC3=O", "TGI": "> 100 µM"}
{"COMPOUND": "Fc1ccc(-c2c(-c3ccncc3)nc3n2CCS3)cc1", "TGI": "> 25 µM"}
{"COMPOUND": "NNC(=O)C(=O)N/N=C(\\CCCC(=O)Nc1ccc(Cl)cc1)CC(=O)c1ccc(F)cc1", "TGI": "> 100 µM"}
{"COMPOUND": "COc1cc(/C=C2\\C(=O)N(C(=O)Cc3ccccc3)N=C2C)cc(OC)c1OC", "TGI": "> 100 µM"}
{"COMPOUND": "COc1c/c(=C2\\C=c3ccccc3=N2)[nH]/c1=C\\c1[nH]c(C)cc1C", "TGI": "6.87 µM"}
{"COMPOUND": "Cc1ccc2c(=O)cc(-c3sccc3C)[nH]c2n1", "TGI": "> 100 µM"}
{"COMPOUND": "CC(C)C(NC(=O)C(C(C)C)N(C)C)C(=O)N(C)C(C(=O)N1CCCC1C(=O)N1CCCC1C(=O)NCc1ccccc1)C(C)C (stereo unspecified) (ξNMe2Val-V[NMeV]PP-NHBn; configuration not given here)", "TGI": "> 100 µM"}
{"COMPOUND": "Cc1cnc2n1S(=O)(=O)c1cc(C(=O)Nc3cccc4nsnc34)c(Cl)cc1S2", "TGI": "35.8 µM"}
{"COMPOUND": "Cc1cc(S(=O)(=O)Nc2n[nH]c(-c3ccc(Cl)cc3)n2)c(SSc2cc(Cl)c(C)cc2S(=O)(=O)Nc2n[nH]c(-c3ccc(Cl)cc3)n2)cc1Cl", "TGI": "> 100 µM"}
{"COMPOUND": "NS(=O)(=O)OC[C@H]1C[C@@H](Nc2ccnc3cc(-c4cccc(SC(F)(F)F)c4)nn23)[C@H](O)[C@@H]1O", "TGI": "0.0489 µM"}
{"COMPOUND": "O=c1oc2ccc(I)cc2c(=O)n1-c1ccc(Br)cc1F", "TGI": "6.65 µM"}
{"COMPOUND": "C[C@@H]1C[C@H]2[C@@H]3CCC4=CC(=O)C=C[C@]4(C)[C@@]3(F)[C@@H](O)C[C@]2(C)[C@@]1(O)C(=O)CO", "TGI": "> 100 µM"}
{"COMPOUND": "COc1ccc(C2(Cl)c3ccccc3N(c3ccccc3)c3ccccc32)cc1", "TGI": "2.76 µM"}
